- System: Escherichia coli
- ASSAY_REMARKS: Antibacterial activity against Escherichia coli RCMB 010052 assessed as diameter of inhibition zone at 1 mg/mL after 24 to 48 hrs by agar well diffusion method
- Assay type: functional
- MEASUREMENT_SETUP: read-out: DIZ
REPORTED_PROPERTY: zone of inhibition at 1000 µg/mL
The number alone won't do; follow it with the unit.

{"SMI": "COc1cc(NS(=O)(=O)c2ccc(NC(=S)Nc3ccncc3)cc2)nc(OC)n1", "zone of inhibition at 1000 µg/mL": "13.2 mm"}
{"SMI": "COc1cc(NS(=O)(=O)c2ccc(NC(=S)Nc3nc4c(OC)cccc4s3)cc2)nc(OC)n1", "zone of inhibition at 1000 µg/mL": "16.2 mm"}
{"SMI": "O=C(O)c1cn(C2CC2)c2cc(N3CCNCC3)c(F)cc2c1=O", "zone of inhibition at 1000 µg/mL": "25.8 mm"}
{"SMI": "COc1cc(NS(=O)(=O)c2ccc(NC(=S)NN3C(=O)CSC3=S)cc2)nc(OC)n1", "zone of inhibition at 1000 µg/mL": "27.2 mm"}

Could you tell me zone of inhibition at 1000 µg/mL for each of these compounds? They are listed below.
1. COc1cc(NS(=O)(=O)c2ccc(NC(=S)Nc3cc(=O)[nH]c(=O)[nH]3)cc2)nc(OC)n1
2. COc1cc(NS(=O)(=O)c2ccc(NC(=S)Nc3cccc4nsnc34)cc2)nc(OC)n1
3. COc1cc(NS(=O)(=O)c2ccc(NC(=S)Nc3nc4cc(C)c(C)cc4s3)cc2)nc(OC)n1
4. COc1cc(NS(=O)(=O)c2ccc(NC(=S)Nc3nc4ccc([N+](=O)[O-])cc4s3)cc2)nc(OC)n1
5. COc1cc(NS(=O)(=O)c2ccc(NC(=S)Nc3cc(=O)n(C)c(=O)n3C)cc2)nc(OC)n1

["24.3 mm", "24.2 mm", "26.3 mm", "13.3 mm", "19.1 mm"]
